# Assay Info: solvent given as SMILES
# Condition Set: in CO
Answer class 0 if absorption maximum is under 400 nm, and class 1 if it is 400 nm or more.

Given COC(=O)C(Cc1ccc2oc(-c3ccc(N(C)C)cc3)nc2c1)NC(=O)OC(C)(C)C (stereo unspecified) , state whether its absorption maximum is at least 400 nm.
class 0

Determine whether measured absorption maximum meets or exceeds 400 nm for CCC1=C(C)C2=Cc3c(I)c(I)c(I)n3[B-](F)(F)[N+]2=C1C
class 1

Please check the record BrC1=CN2C[n+]3cc(Br)c4ccccc4c3N=C2c2ccccc21 and state if its absorption maximum is at or above 400 nm.
class 1

Could you tell me if the measured absorption maximum of COc1c2ccccc2c(OC)c2c1c1ccc(C(F)(F)F)cc1n2C reaches 400 nm or more?
class 1

----------
# Assay Info: solvent given as SMILES
# Condition Set: in ClCCl
Documented absorption maximum across a set of compounds
Reply numerically in nm, unit not repeated.

The examples below pair each entry with its known result.
COc1ccc(-c2c3ccccc3c(C#Cc3ccccc3)c3cc4ccccc4cc23)cc1 = 523
CCCCCCN(CCCCCC)c1ccc(C#Cc2c(F)c(F)c(F)c(F)c2F)cc1 = 363
CC(C)[Si]1(C(C)C)c2cc(C=O)ccc2-c2ccc(N(c3ccccc3)c3ccccc3)cc21 = 401
C(=C\c1ccnc2ccccc12)/c1ccc(/C=C/c2ccnc3ccccc23)cc1 = 370

Let's switch to this compound now.
Indicate the recorded absorption maximum value for this compound: CCCCCCn1c2ccccc2c2cc(-c3ccc(-c4cc(-c5ccccn5)nc(-c5ccccn5)c4)cc3)ccc21
296

----------
# Assay Info: solvent given as SMILES
# Condition Set: in CC(C)OC(C)C
Measurement Kind: absorption maximum (nm)
Quick reminder: number only, in nm, skip the unit.

# example entries with known answers
O=C1NC(=O)c2c1c1c3ccccc3[nH]c1c1[nH]c3ccccc3c21 = 391
c1ccc2nc3cccc(-c4ccc(-n5c6ccccc6c6ccccc65)cc4)c3cc2c1 = 359
COC(=O)C(Cc1ccc2oc(-c3ccc(N(C)C)cc3)nc2c1)NC(=O)OC(C)(C)C (centres undefined) = 339.5

For the next question, use this compound.
Could you please provide reported absorption maximum for c1ccc(-c2nc(-c3ccc(-c4ccc(-n5c6ccccc6c6ccccc65)cc4)cn3)oc2-c2ccccc2)cc1 ? Thanks!
334

----------
This listing pairs molecules with measured absorption maximum.
# Assay Info: solvent given as SMILES
# Condition Set: in CN(C)C=O
Field format: number, assumed nm, no unit text.

CCCCN1C(=O)C(=CC=C2N(CCCC)c3ccccc3N2CCCC)C(=O)N(CCCC)C1=S = 431
CCn1c2ccccc2c2cc(-c3cc(-c4ccc5c(c4)c4ccccc4n5CC)nc(-c4ccccc4)n3)ccc21 = 367
Cc1nc2cccc(-c3nc4ccc(Cl)cc4o3)c2c(=O)[nH]1 = 310

Indicate the recorded absorption maximum value for this molecule: Cc1c2ccncc2c(C)c2c1[nH]c1ccccc12
293.5

Check the records and state absorption maximum for CN(C)c1ccc(/C=C/C=C2\CC/C(=C\c3ccc(N(C)C)cc3)C2=O)cc1
486

Look up and state reported absorption maximum for CC[N+]1(CC)CN2C(C)=CC(C)=C(C(=O)[O-])C2=N1
361

State its absorption maximum for this molecule: COc1ccc(C(=O)/C=C/c2ccc(N(C)C)cc2)cc1OC
416

Supply measured absorption maximum of COc1cc(-c2nc(-c3ccccc3)c(-c3ccccc3)[nH]2)c(OC)cc1/C=C/c1ccncc1 in your reply.
397

Entry Cc1cc(-c2ccc(-c3nc4ccccc4[nH]3)cc2)ccc1-c1ccc(-c2nc3ccccc3[nH]2)cc1 needs its absorption maximum filled in; supply it.
330

Hello, please tell me recorded absorption maximum for this one: Cc1ccc(-c2cc(-c3ccccc3)c(C#N)c(=S)[nH]2)cc1
438
